protocol-description: Inhibition of pyrimidine nucleoside phosphorylase activity in beagle small intestine homogenate (decomposition of 5-fluoro-2'-deoxyuridine)
Format: biochemical
conditions: dog, small intestine homogenate, pH 7
For each of the compounds below, state its half-life at 25 µM.

Report half-life at 25 µM, nothing else, for this compound: `Cc1cn(COCCO)c(=O)[nH]c1=O`
> 16.7 h

Report half-life at 25 µM, nothing else, for this compound: `O=c1[nH]c(=O)n(COCCO)cc1F`
> 16.7 h

Next:
Report half-life at 25 µM, nothing else, for this compound: O=c1ccn([C@H]2C[C@H](O)[C@@H](CO)O2)c(=O)[nH]1 [Deoxyuridine, reference compound]
0.538 h

====

For each of the molecules below, state its Half-life of 5-fluoro-2'-deoxyuridine in presence of inhibitor.
Test system: pyrimidine nucleoside phosphorylase
protocol-description: Inhibition of pyrimidine nucleoside phosphorylase activity in beagle small intestine homogenate (decomposition of 5-fluoro-2'-deoxyuridine)
Type: biochemical
conditions: inhibitor 0.025 mM; 0.4% w/v beagle small intestine homogenate, pH 7.0, 37° C.
Numbers only, in min.

Example entries and their recorded answers appear below.
Report Half-life of 5-fluoro-2'-deoxyuridine in presence of inhibitor, nothing else, for this molecule: `Cc1cn(COCCO)c(=O)[nH]c1=O`
85.1

Report Half-life of 5-fluoro-2'-deoxyuridine in presence of inhibitor, nothing else, for this molecule: `O=c1[nH]c(=O)n(COCCO)cc1F`
46.8

Report Half-life of 5-fluoro-2'-deoxyuridine in presence of inhibitor, nothing else, for this molecule: O=c1ccn([C@H]2C[C@H](O)[C@@H](CO)O2)c(=O)[nH]1 [Deoxyuridine, reference compound]
30.5

Now examine the next entry.
Report Half-life of 5-fluoro-2'-deoxyuridine in presence of inhibitor, nothing else, for this molecule: Cc1cn([C@H]2C[C@H](O)[C@@H](CO)O2)c(=O)[nH]c1=O [Thymidine, reference compound]
58.1

====

protocol-description: Inhibition of pyrimidine nucleoside phosphorylase activity in beagle small intestine homogenate (decomposition of 5-fluoro-2'-deoxyuridine)
Format: biochemical
conditions: dog, small intestine homogenate, pH 7
measurement-name: half-life at 10 µM

Report half-life at 10 µM, nothing else, for this compound: `O=c1[nH]c(=O)n(COCCO)cc1Br`
> 16.7 h

====

test-system: pyrimidine nucleoside phosphorylase (Rattus norvegicus, UniProt F7F0D5)
Construct: small intestine homogenates of an SD-strain male rat and a male beagle; from tissue; host or cells: small intestine homogenate of SD-strain male rat
Sequence (F7F0D5 1-312): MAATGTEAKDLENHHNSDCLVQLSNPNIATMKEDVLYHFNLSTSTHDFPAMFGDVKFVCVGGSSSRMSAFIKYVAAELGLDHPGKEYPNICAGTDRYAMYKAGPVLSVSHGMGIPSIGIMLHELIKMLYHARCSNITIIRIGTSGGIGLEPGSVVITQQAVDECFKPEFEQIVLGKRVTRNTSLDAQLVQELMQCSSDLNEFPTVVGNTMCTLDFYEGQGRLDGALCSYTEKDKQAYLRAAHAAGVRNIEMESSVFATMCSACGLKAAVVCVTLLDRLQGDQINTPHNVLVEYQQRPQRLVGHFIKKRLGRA
protocol-description: Inhibition of pyrimidine nucleoside phosphorylase activity in rat small intestine homogenate (decomposition of 5-fluoro-2'-deoxyuridine)
Type: biochemical, SD-strain rat
conditions: inhibitor 0.025 mM; 0.09% w/v rat small intestine homogenate, pH 7.0, 37° C.
measurement-name: Half-life of 5-fluoro-2'-deoxyuridine in presence of inhibitor (min)
One number for each entry, in min.

Example entries and their recorded answers appear below.
Report Half-life of 5-fluoro-2'-deoxyuridine in presence of inhibitor, nothing else, for this compound: Cc1cn([C@H]2C[C@H](O)[C@@H](CO)O2)c(=O)[nH]c1=O [Thymidine, reference compound]
30.6

Report Half-life of 5-fluoro-2'-deoxyuridine in presence of inhibitor, nothing else, for this compound: `O=c1[nH]c(=O)n(COCCO)cc1F`
49.4

Report Half-life of 5-fluoro-2'-deoxyuridine in presence of inhibitor, nothing else, for this compound: `Cc1cn(COCCO)c(=O)[nH]c1=O`
100.6

Next:
Report Half-life of 5-fluoro-2'-deoxyuridine in presence of inhibitor, nothing else, for this compound: O=c1ccn([C@H]2C[C@H](O)[C@@H](CO)O2)c(=O)[nH]1 [Deoxyuridine, reference compound]
22.2
